This listing pairs compounds with measured melting point.

Supply melting point value. Item: C[C@H]([C@@H](O)[C@@H](O)CN1CCCCC1)[C@H]1CC[C@H]2[C@@H]3CC(=O)[C@H]4C[C@H](O)[C@H](O)C[C@]4(C)[C@H]3CC[C@]12C.Cl [22d]
> 250 °C (dec.)

Note melting point for the compound shown: C[C@H]([C@@H](O)[C@H](O)C(=O)N1CCOCC1)[C@H]1CC[C@H]2[C@@H]3CC(=O)[C@H]4C[C@H](O)[C@H](O)C[C@]4(C)[C@H]3CC[C@]12C [20e]
> 210 °C (dec.)

Find the measured melting point of C[C@H](CN1CCCCC1)[C@H]1CC[C@H]2[C@@H]3CC(=O)[C@H]4C[C@H](O)[C@H](O)C[C@]4(C)[C@H]3CC[C@]12C [15d] and report it.
> 210 °C (dec.)
